tgt: von Willebrand factor full length (Homo sapiens, UniProt P04275 SEQ:764-2813)
protocol_summary: filter; only 6% bound at 100 nM vWF
condition_details: tags: Calbiochem 681300; label: 5'-32P
measurement_type: pKd
# log scale: pKd equals minus log10 of the concentration in mol/L

Challenge: Need pKd, item GGCGTGCAGTGCCTTCGGCCGTGCGGTGCCTCCGTCACGCC (ssDNA, 2'-OMe A8, 3'-idT) [ARC1201]
Response given: 9.05
